Biological target: pooled human IgG
endpoint: Enzyme Activity Endpoint Assay: Fc (ng/µL)
Answers are plain numbers, in ng/µL.

Reported Enzyme Activity Endpoint Assay: Fc for PRT-539 (protein) MANQEIRYSKNENPNVTIKWVHGIGEPTQAEKEKIEFYWYETNTTKFFNNRKVTHLGDSNQCWAKTASNMLHWWFEQNKENINKYIEKKNITGKINFNGEQMFDVKEGIDDNQEKEKSYIANTFRTKKAHNLSTKHKGDYIISGLAWYLYGLNNFKNAHGPTPVKKKPKFYGPALFKDVFNRGDGNTPIKEETDFKEYTKKEFEDILKEALDSKKAIGINIYGSNVGYGHAITLWGAAFDEDNNIIAIYVVDNNFKFENRIFPYGIWYEKEGRPYLFNYEINSFVKNRYVGEITTLDKGEAQWQETNLEHHHHHH was 0

These measurements were taken from patent US20250027068.
